These data points were gathered from ChEMBL document CHEMBL1201862.

System: SF-539
Assay: NCI tumour cell line growth inhibition, 48 h
Activity calls are given as the source filed them. Rule as the data show it: active = GI50 up to about 1.1 µM and inactive = higher.
The reply should be one of these categories: active, inactive

> print(dat)
                                   compound  experimental.target  answer.label
1                  O=C(C#Cc1ccccc1)N1CCCCC1               SF-539      inactive
2  COc1c2ccoc2c(S(=O)(=O)Nc2ccc(Cl)cc2)c2oc(C)cc(=O)c12               SF-539      inactive
3  COc1cc2c(c(OC)c1O)-c1ccc(OC)c(=O)cc1[C@@H](NC(=O)C(F)(F)F)CC2               SF-539        active
4   CCN(CC)CCCNC(=O)c1ccccc1Nc1c(Cl)cccc1Cl               SF-539      inactive
5  O=c1cc(-c2ccccc2)oc2ccc(-c3ccc4oc(-c5ccccc5)cc(=O)c4c3)cc12               SF-539      inactive
6  OCCO[P+]1(OCCO)n2c3ccc2C(c2ccccc2)=C2C=CC(=N2)C(c2ccccc2)=c2ccc(n21)=C(c1ccccc1)C1=NC(=C3c2ccccc2)C=C1               SF-539        active

In this assay, the call recorded for CCCCC1(O)CC2CC1C(C)C2(C)C (configuration not stated) was what?
inactive

In this assay, the call recorded for COC(=O)c1cc(=O)n(-c2ccc3nn(C)nc3c2)cc1C(=O)OC was what?
inactive

In this assay, the call recorded for CCCCCCCCCCCCCCC(O)C1CCC(C(O)CCC(O)CCCCCC(O)CC2=CC(C)OC2=O)O1 (configuration not stated) was what?
inactive

In this assay, the call recorded for CN(C)/N=N/c1ccc2[nH]c(=O)[nH]c2c1 was what?
inactive

----------
Test system: RXF 393
Experiment: NCI tumour cell line growth inhibition, 48 h
The source made the active and inactive calls. Cut-off read from the data, not from the text of the source: active = GI50 up to about 1.1 µM and inactive = higher.
quantity: GI50

> print(dat)
                                   compound       endpoint.value
1  CN1CCc2c(sc3ncn(Nc4ccc(F)cc4)c(=N)c23)C1  > 100 µM (inactive)
2  COC(=O)/C=C\C1C(C(=O)OC)C2(C(=O)OC)CCC1(C(=O)OC)N2 (stereo not drawn)   7.21 µM (inactive)

Look at this compound and give its reported GI50. C=CCN1C(=O)C[C@H](Cc2ccccc2)NC(=O)C[C@H](Cc2ccccc2)N(CC=C)C(=O)C[C@H](Cc2ccccc2)NC(=O)C[C@@H]1Cc1ccccc1
7.14 µM (inactive)

----------
Tested on: SF-539
Experiment: NCI tumour cell line growth inhibition, 48 h
Activity calls are given as the source filed them. Cut-off read from the data, not from the text of the source: active = GI50 up to about 1.1 µM and inactive = higher.
Here, each record is paired with measured GI50 data.

> print(dat)
                                   compound  experimental.target  quantity       endpoint.value
1  COc1nc(Cl)nc(N[C@H](C)c2c3ccccc3cc3ccccc23)n1               SF-539      GI50   17.8 µM (inactive)
2  C[C@]12CCC(=O)C=C1CC[C@@H]1[C@@H]2[C@@H](O)C[C@@]2(C)[C@H]1CC[C@]2(O)C(=O)COC(=O)COCC(=O)O               SF-539      GI50  > 100 µM (inactive)
3                        O=c1sc2c(s1)SSSSS2               SF-539      GI50   20.2 µM (inactive)

Look at this compound and give its reported GI50. [N-]=[N+]=NC(c1cn(C2CC(O)C(CO)O2)c(=O)[nH]c1=O)C(Cl)I (configuration not stated)
> 100 µM (inactive)

Look at this compound and give its reported GI50. N#C/C(N)=C(C#N)/N=C/Nc1ccccc1N
> 100 µM (inactive)

Look at this compound and give its reported GI50. CN[C@H]1CC[C@]23C[C@]24CC[C@]2(C)[C@@H]([C@H](C)N(C)C)CC[C@@]2(C)[C@@H]4CC[C@H]3C1(C)C
11.2 µM (inactive)

Look at this compound and give its reported GI50. CC(C)[Si](CC1=CCCCC12C(=O)N(COCC[Si](C)(C)C)c1ccccc12)(C(C)C)C(C)C (configuration not stated)
73.1 µM (inactive)
